B1: SLC6A17 (parent)
chain: KAVEEELDAEDRPAWNSKLQYILA

Variants of: B1
Assay: protein stability index of a GFP-peptide fusion (GPS, HEK-293T) (PSI 1-6); higher = more stable;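 also: lentivirally expressed fusions sorted by FACS into six bins by GFP to DsRed ratio, PSI derived from sequencing read proportions per bin multiplied by bin number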
Details: c terminus: a fixed tail appended
// 0 strictly below 3 in protein stability index; 1 otherwise

Some solved entries appear below for comparison.
mutation-key | group
A14R | 0
S17A | 0
W15F | 1

Request: Reported protein stability index at or above 3? `A24G`
Response: 1

Request: Assess whether reported protein stability index for `E10P` sits at 3 or higher.
Response: 0
